Tested on: Candida albicans
Experiment: Inhibition of Candida albicans CDR1 expressed in Saccharomyces cerevisiae AD assessed as reduction in nile red dye efflux at 70 uM after 30 mins by flow cytometry relative to control
Label true when inhibition >= 30%; otherwise false.

[[record]]
smiles_entry = "C=C1CC[C@H]2[C@@H](/C=C(\\C)C(=O)[C@@]3(O)C[C@H](C)[C@H](O)[C@@H]3[C@H]1OC(=O)c1ccccc1)C2(C)C"
system_under_test = "Candida albicans"
category_label = "true"

[[record]]
smiles_entry = "C=C1CC[C@H]2[C@@H](/C=C(\\C)C(=O)[C@@]3(O)C[C@H](C)[C@H](O)[C@@H]3[C@H]1OC(=O)c1cccc(OC)c1)C2(C)C"
system_under_test = "Candida albicans"
category_label = "true"

[[record]]
smiles_entry = "C/C1=C\\[C@@H]2[C@H](CC[C@]3(CO3)[C@H](OC(=O)Cc3ccccc3)[C@H]3[C@@H](OC(=O)Cc4ccccc4)[C@@H](C)C[C@]3(O)C1=O)C2(C)C"
system_under_test = "Candida albicans"
category_label = "false"

[[record]]
smiles_entry = "C=C1CC[C@H]2[C@@H](/C=C(\\C)C(=O)[C@@]3(O)C[C@H](C)[C@H](O)[C@@H]3[C@H]1OC(=O)c1cccc(C(F)(F)F)c1)C2(C)C"
system_under_test = "Candida albicans"
category_label = "true"

[[record]]
smiles_entry = "C=C1CC[C@H]2[C@@H](/C=C(\\C)C(=O)[C@@]3(OC(C)=O)C[C@H](C)[C@H](OC(C)=O)[C@@H]3[C@H]1OC(C)=O)C2(C)C"
system_under_test = "Candida albicans"
category_label = "false"

[[record]]
smiles_entry = "CCCC(=O)O[C@@H]1[C@@H]2[C@@H](OC(=O)CCC)[C@]3(CC[C@H]4[C@@H](/C=C(\\C)C(=O)[C@@]2(OC(=O)CCC)C[C@@H]1C)C4(C)C)CO3"
system_under_test = "Candida albicans"
category_label = "true"

[[record]]
smiles_entry = "COc1ccc(C(=O)O[C@@H]2[C@@H]3[C@@H](OC(=O)c4ccc(OC)cc4)[C@]4(CC[C@H]5[C@@H](/C=C(\\C)C(=O)[C@@]3(O)C[C@@H]2C)C5(C)C)CO4)cc1"
system_under_test = "Candida albicans"
category_label = "false"

[[record]]
smiles_entry = "C=C1CC[C@H]2[C@@H](/C=C(\\C)C(=O)[C@@]3(O)C[C@H](C)[C@H](O)[C@@H]3[C@H]1OC(=O)/C=C/c1ccccc1)C2(C)C"
system_under_test = "Candida albicans"
category_label = "true"

[[record]]
smiles_entry = "C/C1=C\\[C@@H]2[C@H](CC[C@]3(CO3)[C@H](OC(=O)c3ccccc3)[C@H]3[C@@H](OC(=O)c4ccccc4)[C@@H](C)C[C@]3(OC(=O)c3ccccc3)C1=O)C2(C)C"
system_under_test = "Candida albicans"
category_label = "false"

[[record]]
smiles_entry = "CCCC(=O)O[C@@H]1[C@@H]2[C@@H](OC(C)=O)[C@]3(CC[C@H]4[C@@H](/C=C(\\C)C(=O)[C@@]2(OC(C)=O)C[C@@H]1C)C4(C)C)CO3"
system_under_test = "Candida albicans"
category_label = "false"

